src = patent US20200368361A1

Below, each entry is listed alongside its reported MFI.
ASSAY_SYSTEM: T1, mouse MSR1 on RAW264.7 cells (mouse, UniProt P30204 1-458)
T1 construct: whole, on cells
T1 sequence (looked up): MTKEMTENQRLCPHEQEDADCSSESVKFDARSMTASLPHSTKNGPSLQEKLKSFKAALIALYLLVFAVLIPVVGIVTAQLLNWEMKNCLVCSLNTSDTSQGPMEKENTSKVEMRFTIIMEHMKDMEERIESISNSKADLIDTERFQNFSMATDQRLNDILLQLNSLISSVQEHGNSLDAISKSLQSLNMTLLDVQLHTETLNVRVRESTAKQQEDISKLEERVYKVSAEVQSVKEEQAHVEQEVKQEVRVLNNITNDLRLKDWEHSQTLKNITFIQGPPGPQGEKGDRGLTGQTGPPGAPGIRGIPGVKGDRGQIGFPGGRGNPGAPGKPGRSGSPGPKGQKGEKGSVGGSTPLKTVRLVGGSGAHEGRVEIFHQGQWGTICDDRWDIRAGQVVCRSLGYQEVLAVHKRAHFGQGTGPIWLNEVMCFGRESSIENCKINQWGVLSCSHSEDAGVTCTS
PROTOCOL_DETAILS: flow cytometry, RAW264.7 cells, 10 ug/mL;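 also: antibodies bound to RAW264.7 cells for 30 min on ice after Fc block with mouse IgG, S/N is MFI relative to unstained cells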
// no unit, no text: just the number

Below, each entry is followed by its recorded MFI result.
- BINDER: "H1H27754P-N297Q (antibody, human IgG1, V domains shown, human IgG1 Fc with N297Q) VH: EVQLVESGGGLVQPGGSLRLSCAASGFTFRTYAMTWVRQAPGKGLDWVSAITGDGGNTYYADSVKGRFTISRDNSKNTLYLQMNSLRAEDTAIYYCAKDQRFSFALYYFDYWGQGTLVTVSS VL: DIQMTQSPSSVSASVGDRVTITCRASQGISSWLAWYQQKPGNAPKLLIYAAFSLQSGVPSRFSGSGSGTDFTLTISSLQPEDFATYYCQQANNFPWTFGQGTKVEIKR"
  MFI: 5410
- BINDER: "H1H27731P-N297Q (antibody, V domains shown, human IgG1 Fc with N297Q) VH: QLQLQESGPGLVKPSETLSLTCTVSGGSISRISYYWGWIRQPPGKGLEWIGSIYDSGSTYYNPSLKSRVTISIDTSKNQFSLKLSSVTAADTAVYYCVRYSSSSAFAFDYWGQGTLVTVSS VL: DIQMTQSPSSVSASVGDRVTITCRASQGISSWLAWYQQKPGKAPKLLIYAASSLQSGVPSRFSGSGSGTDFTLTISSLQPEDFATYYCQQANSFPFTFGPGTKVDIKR"
  MFI: 3510

Query: Any idea what MFI was measured for H1H27739P-N297Q (antibody, human IgG1, V domains shown, human IgG1 Fc with N297Q) VH: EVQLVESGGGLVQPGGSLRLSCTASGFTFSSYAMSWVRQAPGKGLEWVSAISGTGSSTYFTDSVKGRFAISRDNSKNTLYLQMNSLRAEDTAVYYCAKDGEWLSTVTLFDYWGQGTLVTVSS VL: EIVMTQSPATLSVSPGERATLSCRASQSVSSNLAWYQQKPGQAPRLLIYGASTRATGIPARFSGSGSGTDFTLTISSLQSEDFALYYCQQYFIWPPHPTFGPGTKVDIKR ?
Response: 3270
